biological target: FLT3 ITD, F691L (Homo sapiens, UniProt P36888, F691L, form not given); construct: fused on or other part: DNA tag for qPCR detection (T7 phage fusion or DNA-tagged protein from HEK-293 cells); assay: DiscoverX KINOMEscan competition binding, FLT3 ITD, F691L
pKd: −log10 of the molar value.
OBSERVATION TYPE: pKd

(A) CC(C)(O)c1cn2c(-c3cccc(N[C@H]4CNCC[C@@H]4F)n3)cnc2cn1
(B) CC(C)(O)c1cn2c(-c3cccc(N[C@@H]4CCCNC4)n3)cnc2cn1
(C) FC(F)c1cn2c(-c3cccc(N[C@H]4CNCC[C@@H]4F)n3)cnc2cn1
Reorder the list: decreasing pKd. // ordering of labels required in reply
C, A, B
(C: 10.13, A: 9.31, B: 8.74)
